# SUV420H1 enzyme (Homo sapiens): log10 IC50 values follow
Quantity name: log10 IC50 (log10 of the value in nM)

{"columns": ["Molecule", "Subject of test", "Recorded measurement"],
 "data": [
  ["NCc1cc2cc(-c3ccc(C(=O)NC4CC4)cc3)cc(Cn3cnc4c(N)ncnc43)c2[nH]1 [Example 50]", "SUV420H1 enzyme (Homo sapiens)", 2.35],
  ["C=CC(=O)NCc1cc2cc(Cl)cc(Cn3cnc4c(N)ncnc43)c2[nH]1 [Example 93]", "SUV420H1 enzyme (Homo sapiens)", 3.99],
  ["Nc1ncnc2c1ncn2Cc1cc(Cl)cc2cc(CNCc3c(F)cccc3F)[nH]c12 [Example 219]", "SUV420H1 enzyme (Homo sapiens)", 3.50],
  ["Cc1ccc(-c2cc(Cn3cnc4c(N)ncnc43)c3[nH]c(CN)cc3c2)cc1 [Example 30]", "SUV420H1 enzyme (Homo sapiens)", 3.07],
  ["CC1CCCC(C(=O)NCc2cc3cc(Cl)cc(Cn4cnc5c(N)ncnc54)c3[nH]2)C1 (centres unmarked) [Example 131]", "SUV420H1 enzyme (Homo sapiens)", 3.51],
  ["CC(C)n1nnc2cc(C(=O)NCc3cc4cc(Cl)cc(Cn5cnc6c(N)ncnc65)c4[nH]3)ccc21 [Example 371]", "SUV420H1 enzyme (Homo sapiens)", 4.33],
  ["Cc1onc(-c2ccccc2)c1C(=O)NCc1cc2cc(Cl)cc(Cn3cnc4c(N)ncnc43)c2[nH]1 [Example 326]", "SUV420H1 enzyme (Homo sapiens)", 3.79],
  ["N#Cc1ccc(C(=O)NCc2cc3cc(C4=CCOCC4)cc(Cn4cnc5c(N)ncnc54)c3[nH]2)c(F)c1 [Example 285]", "SUV420H1 enzyme (Homo sapiens)", 1.76],
  ["CN(C)C(=O)c1cccc(-c2cc(Cn3cnc4c(N)ncnc43)c3[nH]c(CN)cc3c2)c1 [Example 48]", "SUV420H1 enzyme (Homo sapiens)", 3.12],
  ["NCc1cc2c(-c3ccc(F)cc3)ccc(Cn3cnc4c(N)ncnc43)c2[nH]1 [Example 73]", "SUV420H1 enzyme (Homo sapiens)", 2.86],
  ["Nc1ncnc2c1ncn2Cc1cc(Cl)cc2cc(CNC(=O)c3ccccc3C(=O)N3CCCCC3)[nH]c12 [Example 324]", "SUV420H1 enzyme (Homo sapiens)", 4.10],
  ["Nc1ncnc2c1ncn2Cc1cc(Cl)cc2cc(CNC(=O)c3ccn[nH]3)[nH]c12 [Example 142]", "SUV420H1 enzyme (Homo sapiens)", 3.98],
  ["Nc1ncnc2c1ncn2Cc1cc(Cl)cc2cc(CNC(=O)c3c(F)cccc3Br)[nH]c12 [Example 226]", "SUV420H1 enzyme (Homo sapiens)", 2.44],
  ["Nc1ncnc2c1ncn2Cc1cc(Cl)cc2cc(CNC(=O)c3cnoc3C3CC3)[nH]c12 [Example 189]", "SUV420H1 enzyme (Homo sapiens)", 3.53],
  ["COc1cccc(CNCc2cc3cc(Cl)cc(Cn4cnc5c(N)ncnc54)c3[nH]2)c1 [Example 249]", "SUV420H1 enzyme (Homo sapiens)", 3.52],
  ["COc1cccc(-c2cc(Cn3cnc4c(N)ncnc43)c3[nH]c(CN)cc3c2)c1 [Example 35]", "SUV420H1 enzyme (Homo sapiens)", 3.04],
  ["Cc1cc(C(=O)NCc2cc3c(Cl)ccc(Cn4cnc5c(N)ncnc54)c3[nH]2)c(C)nn1 [Example 239]", "SUV420H1 enzyme (Homo sapiens)", 1.74],
  ["Nc1ncnc2c1ncn2Cc1cc(Cl)cc2cc(CNC(=O)c3ccc4cc[nH]c4c3)[nH]c12 [Example 356]", "SUV420H1 enzyme (Homo sapiens)", 3.42],
  ["NCc1cc2c(-c3cccc(C(N)=O)c3)ccc(Cn3cnc4c(N)ncnc43)c2[nH]1 [Example 84]", "SUV420H1 enzyme (Homo sapiens)", 2.76],
  ["Nc1ncnc2c1ncn2Cc1cc(Cl)cc2cc(CNC(=O)Cc3ccccc3Cl)[nH]c12 [Example 253]", "SUV420H1 enzyme (Homo sapiens)", 4.56],
  ["CC(=O)N1CCC=C(c2cc(Cn3cnc4c(N)ncnc43)c3[nH]c(CN)cc3c2)C1 [Example 16]", "SUV420H1 enzyme (Homo sapiens)", 2.64],
  ["Cc1cc(C(=O)NCc2cc3cc(Cl)cc(Cn4cnc5c(N)ncnc54)c3[nH]2)nn1C [Example 182]", "SUV420H1 enzyme (Homo sapiens)", 3.72],
  ["CN(C)c1cccc(C(=O)NCc2cc3cc(Cl)cc(Cn4cnc5c(N)ncnc54)c3[nH]2)c1 [Example 309]", "SUV420H1 enzyme (Homo sapiens)", 3.86],
  ["Cc1cccc(CNCc2cc3cc(Cl)cc(Cn4cnc5c(N)ncnc54)c3[nH]2)c1F [Example 245]", "SUV420H1 enzyme (Homo sapiens)", 3.31],
  ["Cc1ccccc1-c1ccc(Cn2cnc3c(N)ncnc32)c2[nH]c(CN)cc12 [Example 77]", "SUV420H1 enzyme (Homo sapiens)", 3.42],
  ["NCc1cc2cc(-c3ccc(S(N)(=O)=O)cc3)cc(Cn3cnc4c(N)ncnc43)c2[nH]1 [Example 29]", "SUV420H1 enzyme (Homo sapiens)", 2.40],
  ["COc1ccc(-c2ccc(Cn3cnc4c(N)ncnc43)c3[nH]c(CN)cc23)cc1 [Example 78]", "SUV420H1 enzyme (Homo sapiens)", 2.80],
  ["Cc1cccc(C)c1CNCc1cc2cc(Cl)cc(Cn3cnc4c(N)ncnc43)c2[nH]1 [Example 290]", "SUV420H1 enzyme (Homo sapiens)", 3.45],
  ["Nc1ncnc2c1ncn2Cc1cc(Cl)cc2cc(CNC(=O)C3CCCCC3)[nH]c12 [Example 128]", "SUV420H1 enzyme (Homo sapiens)", 3.52]
]}

###

target: SUV420H1 enzyme (Homo sapiens, UniProt Q4FZB7)
Sequence (Q4FZB7 whole entry): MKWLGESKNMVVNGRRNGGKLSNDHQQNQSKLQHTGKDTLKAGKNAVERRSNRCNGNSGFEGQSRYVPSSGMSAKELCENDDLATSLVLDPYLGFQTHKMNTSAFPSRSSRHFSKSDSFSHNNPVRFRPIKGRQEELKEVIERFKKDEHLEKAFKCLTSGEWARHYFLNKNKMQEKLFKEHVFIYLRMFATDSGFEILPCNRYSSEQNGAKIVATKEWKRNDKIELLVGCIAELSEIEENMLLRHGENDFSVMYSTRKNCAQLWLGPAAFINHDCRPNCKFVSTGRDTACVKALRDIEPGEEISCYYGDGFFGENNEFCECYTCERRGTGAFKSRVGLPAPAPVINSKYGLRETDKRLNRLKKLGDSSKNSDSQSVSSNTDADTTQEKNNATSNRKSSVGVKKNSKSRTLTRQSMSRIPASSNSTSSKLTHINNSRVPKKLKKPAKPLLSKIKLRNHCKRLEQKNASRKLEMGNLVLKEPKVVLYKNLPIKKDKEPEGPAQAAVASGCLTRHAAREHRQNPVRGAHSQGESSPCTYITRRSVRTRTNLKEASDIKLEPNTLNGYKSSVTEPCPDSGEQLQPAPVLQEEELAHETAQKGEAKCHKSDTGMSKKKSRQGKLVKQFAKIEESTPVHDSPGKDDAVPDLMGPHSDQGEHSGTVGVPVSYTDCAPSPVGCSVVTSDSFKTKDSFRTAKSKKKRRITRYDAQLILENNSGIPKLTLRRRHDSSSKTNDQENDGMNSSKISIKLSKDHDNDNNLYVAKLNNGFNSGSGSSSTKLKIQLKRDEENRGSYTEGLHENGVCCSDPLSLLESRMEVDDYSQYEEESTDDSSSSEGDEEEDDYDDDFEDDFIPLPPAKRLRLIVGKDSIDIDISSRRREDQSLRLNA
pIC50: −log10 of the molar value.
The label depends only on pIC50: TRUE if it is at least 6, FALSE if it is smaller.

{"columns": ["Molecule", "Group"],
 "data": [
  ["NCc1cc2ccc(-c3ccccc3)c(Cn3cnc4c(N)ncnc43)c2[nH]1", "FALSE"],
  ["N#Cc1ccc(C(=O)NCc2cc3cc(C4=CCNCC4)cc(Cn4cnc5c(N)ncnc54)c3[nH]2)c(F)c1", "TRUE"],
  ["Cc1nocc1C(=O)NCc1cc2cc(Cl)cc(Cn3cnc4c(N)ncnc43)c2[nH]1", "TRUE"],
  ["Cc1cc(C(=O)NCc2cc3cc(C4=CCNCC4)cc(Cn4cnc5c(N)ncnc54)c3[nH]2)c(C)nn1", "TRUE"],
  ["Nc1ncnc2c1ncn2Cc1cc(Cl)cc2cc(CNC(=O)c3ccns3)[nH]c12", "FALSE"],
  ["COc1cscc1C(=O)NCc1cc2cc(Cl)cc(Cn3cnc4c(N)ncnc43)c2[nH]1", "FALSE"],
  ["CC(=O)NCc1cc2cc(Cl)cc(Cn3cnc4c(N)ncnc43)c2[nH]1", "FALSE"],
  ["Nc1ncnc2c1ncn2Cc1cc(Cl)cc2cc(CNC(=O)CCN3CCCC3)[nH]c12", "FALSE"],
  ["Nc1ncnc2c1ncn2Cc1cc(Cl)cc2cc(CNC(=O)c3ccc4nc(O)sc4c3)[nH]c12", "FALSE"],
  ["CC(=O)N1CC=C(c2cc(Cn3cnc4c(N)ncnc43)c3[nH]c(CNC(=O)c4ccc(C#N)cc4Cl)cc3c2)CC1", "TRUE"],
  ["CCNC(=O)c1cccc(-c2cc(Cn3cnc4c(N)ncnc43)c3[nH]c(CN)cc3c2)c1", "TRUE"],
  ["Nc1ncnc2c1ncn2Cc1cc(Cl)cc2cc(CNC(=O)c3ccc4occc4c3)[nH]c12", "FALSE"],
  ["Cc1noc2ncc(C(=O)NCc3cc4cc(Cl)cc(Cn5cnc6c(N)ncnc65)c4[nH]3)cc12", "TRUE"],
  ["Cc1ncccc1C(=O)NCc1cc2cc(Cl)cc(Cn3cnc4c(N)ncnc43)c2[nH]1", "TRUE"],
  ["NCc1cc2cc(C3=CCC(F)(F)CC3)cc(Cn3cnc4c(N)ncnc43)c2[nH]1", "TRUE"]
]}

###

target: SUV420H1 enzyme (Homo sapiens, UniProt Q4FZB7)
pIC50: −log10 of the molar value.

{"columns": ["Molecule", "Limit operator", "pIC50"],
 "data": [
  ["Nc1ncnc2c1ncn2Cc1cc(Cl)cc2cc(CNC(=O)CCN3CCCCC3)[nH]c12", "=", 5.34],
  ["Cc1noc(C)c1C(=O)NCc1cc2cc(-c3cccc(C(=O)NC4CC4)c3)cc(Cn3cnc4c(N)ncnc43)c2[nH]1", "=", 6.94],
  ["Nc1ncnc2c1ncn2Cc1cc(Cl)cc2cc(CNC(=O)[C@H]3CCC(=O)N3)[nH]c12", "=", 4.74],
  ["N#Cc1ccc(F)c(CNCc2cc3cc(Cl)cc(Cn4cnc5c(N)ncnc54)c3[nH]2)c1", "=", 5.43],
  ["CN(C)C(=O)c1ccc(-c2ccc(Cn3cnc4c(N)ncnc43)c3[nH]c(CN)cc23)cc1", "=", 6.04],
  ["Nc1ncnc2c1ncn2Cc1cc(Cl)cc2cc(CNC(=O)Cc3ccc(Cl)cc3)[nH]c12", "<", 4.30],
  ["Nc1ncnc2c1ncn2Cc1cc(Cl)cc2cc(CNC(=O)c3cccs3)[nH]c12", "=", 5.34],
  ["Nc1ncnc2c1ncn2Cc1cc(Cl)cc2cc(CNC(=O)c3cccc(F)c3)[nH]c12", "=", 5.56]
]}
